For each of the compounds below, state its pIC50.
- measured on: α1S-Na,K-ATPase from pig kidneys (Sus scrofa, UniProt P05024)
- Construct: In contrast to α1S-NKA from pig kidneys; from tissue; host or cells: pig kidney
- method: Hydrolytic Na,K-ATPase activity (enzyme coupled assay), CTS in incubation medium
- Format: biochemical
- condition label: CTS in incubation medium, 37 °C, hyperbola fit; read-out: IC50, inhibition of α1S-NKA hydrolytic activity
Schema: pIC50 number; meaning minus log10 of the concentration expressed in molar units.

stdin: Supply recorded pIC50 for C[C@]12CC[C@H](O)C[C@@]1(O)CC[C@@H]1[C@@H]2CC[C@]2(C)[C@@H](c3ccc(=O)oc3)C[C@H]3O[C@]132 here.
stdout: 6.10

stdin: Supply recorded pIC50 for C[C@@H]1O[C@@H](O[C@H]2C[C@@H](O)[C@]3(CO)[C@H]4[C@H](O)C[C@]5(C)[C@@H](C6=CC(=O)OC6)CC[C@]5(O)[C@@H]4CC[C@]3(O)C2)[C@H](O)[C@H](O)[C@H]1O here.
stdout: 5.70

---

- measured on: α1R-Na,K-ATPase from rat kidneys (Rattus norvegicus, UniProt P06685)
- Construct: α1R-NKA from rat kidneys was transferred into the buffer by dialysis; from tissue; host or cells: rat kidney
- method: Hydrolytic Na,K-ATPase activity (enzyme coupled assay), CTS in incubation medium
- Format: biochemical
- condition label: CTS in incubation medium, 37 °C, hyperbola fit; read-out: IC50, inhibition of rat enzyme (α1R-NKA) hydrolytic activity
test readout: IC50 (µM)
Express it in µM; write the number only.

stdin: Supply recorded IC50 for C[C@@H]1O[C@@H](O[C@H]2C[C@@H](O)[C@]3(CO)[C@H]4[C@H](O)C[C@]5(C)[C@@H](C6=CC(=O)OC6)CC[C@]5(O)[C@@H]4CC[C@]3(O)C2)[C@H](O)[C@H](O)[C@H]1O [ouabain] here.
stdout: 140

---

- measured on: α1S-Na,K-ATPase in E2P-conformation (Sus scrofa, UniProt P05024)
- Construct: In contrast to α1S-NKA from pig kidneys; from tissue; host or cells: pig kidney
- method: biochemical
- Type: binding, pig
- condition label: ITC, Table 1 value as quoted in discussion; read-out: Kd for binding to E2P-conformation
test readout: Kd (nM)
Express it in nM; write the number only.

stdin: Give Kd for C[C@]12CC[C@H](O)C[C@@]1(O)CC[C@@H]1[C@@H]2CC[C@]2(C)[C@@H](c3ccc(=O)oc3)C[C@H]3O[C@]132 tested on α1S-Na,K-ATPase in E2P-conformation (Sus scrofa, UniProt P05024).
stdout: 2300

---

For each of the compounds below, state its pKd.
- measured on: α1S-Na,K-ATPase in E2P-conformation (Sus scrofa)
- Construct: In contrast to α1S-NKA from pig kidneys; from tissue; host or cells: pig kidney
- method: biochemical
- Format: binding, pig
- condition label: ITC, E2P-conformation, pH 7.4, 37 °C; calculated as Kd = 1/Ka; read-out: Kd (dissociation constant)
Schema: pKd number; meaning minus log10 of the concentration expressed in molar units.

stdin: Supply recorded pKd for C[C@]12CC[C@H](O)C[C@@]1(O)CC[C@@H]1[C@@H]2CC[C@]2(C)[C@@H](c3ccc(=O)oc3)C[C@H]3O[C@]132 here.
stdout: 5.63

stdin: Supply recorded pKd for C[C@@H]1O[C@@H](O[C@H]2C[C@@H](O)[C@]3(CO)[C@H]4[C@H](O)C[C@]5(C)[C@@H](C6=CC(=O)OC6)CC[C@]5(O)[C@@H]4CC[C@]3(O)C2)[C@H](O)[C@H](O)[C@H]1O here.
stdout: 7.28
